Where do the numbers come from? From patent US20230110188A1.

Target: T1, Human MuSK (R&D Systems, cat. 10189-MK, histidine tag) (human, UniProt O15146 24-495)
T1 construct: Bought protein; also called human monomeric MuSK-6xhis; not shown: histidine tag (6xhis)
T1 sequence: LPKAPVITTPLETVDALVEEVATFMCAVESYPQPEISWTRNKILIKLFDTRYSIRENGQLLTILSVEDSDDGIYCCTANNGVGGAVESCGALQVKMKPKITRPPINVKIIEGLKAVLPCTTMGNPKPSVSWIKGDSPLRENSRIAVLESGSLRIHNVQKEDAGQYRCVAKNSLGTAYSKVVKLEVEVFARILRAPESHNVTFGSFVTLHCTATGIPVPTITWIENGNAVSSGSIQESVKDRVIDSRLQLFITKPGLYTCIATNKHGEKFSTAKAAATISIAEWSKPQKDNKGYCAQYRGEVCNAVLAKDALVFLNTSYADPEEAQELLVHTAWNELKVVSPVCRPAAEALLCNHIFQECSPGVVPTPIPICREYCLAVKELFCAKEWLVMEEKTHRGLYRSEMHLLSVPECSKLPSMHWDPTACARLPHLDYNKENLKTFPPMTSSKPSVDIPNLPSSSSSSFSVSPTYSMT
Assay: SPR (Biacore), MuSK-coated chip presaturated with 500 nM 3D9b (competitor)
measurement.type: amplitude of prelead after presaturating MuSK (RU)
Answer format: value, then unit.

stdin: Which amplitude of prelead after presaturating MuSK (RU) is reported for this binder? 3B5 (antibody, V domains shown, also called 3B5wt) VH: QVQLVQSGAVVAKPGASVQVSCKTSGYTFTGQYLHWVRQAPGQGLEWIGWINPSSGVTKFAEKFEGRATMTRDTSITTAYIDLRSLRSDDTATYYCATLSLGVYYVGMVAWGQGTLVTVSS VL: ELTQPPSVSVSPGQTATITCSGDGLAQQHVYWFQQRPGQAPLLIIYKDIERPSGIPERFSGSSSGTTAMLTISGVQAEDEADYYCQSGDRTATSVLFGGGTKMTVLG
stdout: 2150 RU
